# STUDY SYSTEM: T1, Aβ pathology (plaques) in human AD brain tissue (human, UniProt P05067 672-713)
# T1 construct: Native tissue deposits, heterogeneous; also called tissue Aβ pathology; Aβ plaques
# T1 sequence (P05067 672-713): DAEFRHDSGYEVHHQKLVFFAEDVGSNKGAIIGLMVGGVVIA
# EXPERIMENT: IHC on frozen human AD brain sections, brain AD 15-19; % stained area against antibody concentration (0.03-9 µg/ml)
PROPERTY NAME: Area Under Curve

[[record]]
binder = "h2726 (antibody, V domains shown, Humanized IgG mAb; Only the variable domains are tied to the construct; also called PB-0573) VH: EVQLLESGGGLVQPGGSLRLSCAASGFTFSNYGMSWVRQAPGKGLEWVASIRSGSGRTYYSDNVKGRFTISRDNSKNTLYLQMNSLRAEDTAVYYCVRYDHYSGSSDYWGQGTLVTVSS VL: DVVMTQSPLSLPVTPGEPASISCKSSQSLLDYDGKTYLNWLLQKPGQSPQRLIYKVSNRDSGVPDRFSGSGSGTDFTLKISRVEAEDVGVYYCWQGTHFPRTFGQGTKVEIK"
property_name = "Area Under Curve"
measured_result = 52.1

[[record]]
binder = "h2731 (antibody, V domains shown, Humanized IgG mAb; Only the variable domains are tied to the construct) VH: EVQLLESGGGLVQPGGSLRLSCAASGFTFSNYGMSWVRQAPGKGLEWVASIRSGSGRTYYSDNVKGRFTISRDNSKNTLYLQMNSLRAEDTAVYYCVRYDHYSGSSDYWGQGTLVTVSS VL: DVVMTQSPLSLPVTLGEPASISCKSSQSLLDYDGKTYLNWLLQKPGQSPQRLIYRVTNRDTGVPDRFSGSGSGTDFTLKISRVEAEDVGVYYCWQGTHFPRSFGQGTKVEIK"
property_name = "Area Under Curve"
measured_result = 52.7

[[record]]
binder = "h2931 (antibody, V domains shown, also called PB-0576) VH: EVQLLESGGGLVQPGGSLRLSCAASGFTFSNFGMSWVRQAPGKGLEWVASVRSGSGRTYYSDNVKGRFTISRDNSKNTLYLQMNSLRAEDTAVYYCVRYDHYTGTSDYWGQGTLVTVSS VL: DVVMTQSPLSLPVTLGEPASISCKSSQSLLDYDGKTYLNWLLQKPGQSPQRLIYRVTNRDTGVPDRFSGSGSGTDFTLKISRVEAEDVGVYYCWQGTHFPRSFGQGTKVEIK"
property_name = "Area Under Curve"
measured_result = 44.8

